# TEST_SYSTEM: AktK (Homo sapiens, UniProt P31749)
# Sequence (P31749 whole entry): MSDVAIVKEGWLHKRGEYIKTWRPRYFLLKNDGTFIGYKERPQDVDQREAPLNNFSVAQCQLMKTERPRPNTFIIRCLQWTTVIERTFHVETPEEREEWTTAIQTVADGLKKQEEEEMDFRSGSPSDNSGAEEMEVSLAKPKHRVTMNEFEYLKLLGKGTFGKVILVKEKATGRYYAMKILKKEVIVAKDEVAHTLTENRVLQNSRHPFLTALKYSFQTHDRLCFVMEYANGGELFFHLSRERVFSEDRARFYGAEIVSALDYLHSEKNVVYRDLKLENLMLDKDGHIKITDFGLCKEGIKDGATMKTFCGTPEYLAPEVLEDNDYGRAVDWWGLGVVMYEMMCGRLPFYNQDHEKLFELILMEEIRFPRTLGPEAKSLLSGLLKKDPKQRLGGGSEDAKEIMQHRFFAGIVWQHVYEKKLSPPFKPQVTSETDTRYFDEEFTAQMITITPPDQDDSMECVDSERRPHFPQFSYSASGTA
# ASSAY_EXPLANATION: Luciferase-coupled chemiluminescence kinase assay (ATP consumption)
# Type: biochemical
# ASSAY_SETUP: Table 1; class symbols per key; read-out: AKT-1 IC50
PROPERTY_MEASURED: IC50

See these solved cases before continuing.
In [3]: df
Out[3]:
                                   compound  property_measured  value_observed
0  Brc1n[nH]c2ncnc(N3CCN(c4ccc(OCc5ccccc5)cc4)CC3)c12 [Entry 125]               IC50      ≥ 10000 nM
1  CCc1n[nH]c2ncnc(N3CCN(c4cc(C(F)(F)F)ccn4)CC3)c12 [Entry 116]               IC50      ≥ 10000 nM
2  Cc1c(NCCN(C)C)cc(C(=O)NC(C)C)cc1N1CCN(c2ncnc3[nH]nc(Br)c23)CC1 [Entry 227]               IC50        < 100 nM
3  Cc1noc(-c2cc(NCCN3CCCC3)c(C)c(N3CCN(c4ncnc5[nH]nc(Br)c45)CC3)c2)n1 [Entry 242]               IC50        < 100 nM
4  CCN(CC)CCCOc1cc(Cl)cc(N2CCN(c3ncnc4[nH]nc(Br)c34)CC2)c1C [Entry 83]               IC50        < 100 nM
5  Cc1c(NCCN(C)C)cc(Cl)cc1N1CCN(c2ncnc3[nH]nc(Br)c23)CC1 [Entry 148]               IC50        < 100 nM
6  CCN(CC)CCNc1cc(Cl)cc(N2CCN(c3ncnc4[nH]nc(Br)c34)CC2)c1C [Entry 28]               IC50        < 100 nM
7  CCC(CC)COc1cc(NCCN2CCCC2)c(C)c(N2CCN(c3ncnc4[nH]nc(Br)c34)CC2)c1 [Entry 207]               IC50        < 100 nM

-- ask What measured IC50 is associated with Cc1ccc(-c2ccccc2OCCCN2CCOCC2)cc1N1CCN(c2ncnc3[nH]nc(Br)c23)CC1 [Entry 278] on AktK (Homo sapiens, UniProt P31749)?
-- reply < 100 nM

-- ask Repeat with Cc1c(NCCN2CCCC2)cc(F)cc1N1CCN(c2ncnc3[nH]nc(C(F)(F)F)c23)CC1 [Entry 79]
-- reply 100 to 1000 nM

-- ask Repeat with CCc1n[nH]c2ncnc(N3CCN(c4cc(Cl)cc(OCC5CCN(C)CC5)c4C)CC3)c12 [Entry 31]
-- reply 100 to 1000 nM

-- ask Repeat with Cc1c(NCCN2CCCC2)cc(C(=O)CCC(F)(F)F)cc1N1CCN(c2ncnc3[nH]nc(Br)c23)CC1 [Entry 274]
-- reply < 100 nM

-- ask Repeat with O=[N+]([O-])c1ccc(N2CCN(c3ncnc4[nH]nc(Br)c34)CC2)cc1 [Entry 97]
-- reply ≥ 10000 nM

-- ask Repeat with Cc1c(OCCCN2CCCCC2)cc(Cl)cc1N1CCN(c2ncnc3[nH]nc(Br)c23)CC1 [Entry 37]
-- reply 100 to 1000 nM

-- ask Repeat with Cc1c(NCCN2CCCC2)cc(C(=O)C2CC2)cc1N1CCN(c2ncnc3[nH]nc(Br)c23)CC1 [Entry 275]
-- reply < 100 nM

-- ask Repeat with Cc1c(OCCN2CCN(C)CC2)cc(Cl)cc1N1CCN(c2ncnc3[nH]nc(C(F)(F)F)c23)CC1 [Entry 73]
-- reply 100 to 1000 nM

-- ask Repeat with Cc1ccc(N2CCN(c3ncnc4[nH]nc(Br)c34)CC2)c(C)c1 [Entry 64]
-- reply 1000 to 10000 nM

Reference for the values: patent US8076338B2
